Consider the following compounds; for each one, report its inhibition.
# Measurement Target: Serine/threonine-protein kinase 26 (Homo sapiens)
# Stated Conditions: at 0.1 µM
# Description: GSK_PKIS: MST4 mean inhibition at 0.1 uM [Nanosyn]
Field note: include the unit after the figure.

// field: inhibition; key: `CCN1CCC(CC(=O)Nc2n[nH]c3nc(-c4cccs4)c(Br)cc23)CC1` ; value = 2.05%

The recorded inhibition for `O=C(Nc1n[nH]c2nc(-c3ccco3)c(Br)cc12)C1CC1` is -1.82%

Recorded result, CC1=C(C(=O)Nc2ccc3[nH]ncc3c2)C(c2ccc(Cl)c(Cl)c2)CC(=O)N1 (stereo unspecified) , inhibition: -1.2%

// field: inhibition; key: `COc1cc2ncn(-c3cc(O[C@@H](C)c4ccccc4Cl)c(C(N)=O)s3)c2cc1OC` ; value = -3.61%

inhibition in this record for `COc1cc(C=NNc2ncnc3c2cnn3-c2ccccc2)ccc1O` : 1.85%

compound `CCn1c(-c2nonc2N)nc2cncc(C(=O)N3CC[C@H](N)C3)c21` , inhibition observed: -0.5%

The value of inhibition measured for the compound CC1=C(C(=O)Nc2ccc3[nH]ncc3c2)C(c2ccc(F)cc2)NC(=O)N1 (stereo unspecified) turned out to be 0.66%

response.value for `Nc1nc(-c2ccc3c(c2)C(=Cc2cc(Br)c(O)c(Br)c2)C(=O)N3)cs1` (field: inhibition) = 0.73%

Field inhibition (entry `c1cnn2ncc(-c3ccnc(Nc4ccc5c(c4)OCCO5)n3)c2c1` ) reads -1.31%

Given item `CCCN1CCC(Oc2cc(Nc3nc(Nc4cccc(F)c4C(N)=O)c4cc[nH]c4n3)c(OC)cc2Cl)CC1` , the value recorded as its inhibition is 1.68%

inhibition recorded for this compound, `CCn1c(-c2nonc2N)nc2c(N3CCCC3)nccc21` , is 0.47%

Recorded inhibition (compound `COc1cccc(-n2ncc3c(N/N=C/c4cccc(F)c4)ncnc32)c1` ): -0.8%

The compound listed as `CCc1cccc(NC(=O)Nc2ccc(Oc3ccc4nc(NC(=O)OC)[nH]c4c3)cc2)c1` has a reported inhibition of 2.48%

The measured inhibition associated with `COc1cc2ncn(-c3cc(OCc4ccccc4Cl)c(C(N)=O)s3)c2cc1OC` reads 0.45%

Reported inhibition of `Fc1cccc(COc2ccc(Nc3ncnc4sc(-c5cccs5)cc34)cc2Cl)c1` : -0.02%

Item: `O=C1NC(=O)C(c2cccc(Cl)c2)=C1Nc1ccc(O)c(Cl)c1` | inhibition: 1.93%

The reported inhibition of the compound `O=C1NC(=O)C(N2CCc3ccccc32)=C1c1ccc(Cl)cc1` was -1.31%

The value of inhibition measured for the compound `COc1cc2ncn(-c3cc(O[C@H](C)c4ccccc4Cl)c(C(N)=O)s3)c2cc1OC` turned out to be -3.36%

Lab book: inhibition of `Fc1cccc(COc2ccc(Nc3ncnc4cc(-c5ccc[nH]5)sc34)cc2Cl)c1` noted as -0.07%

Per the record, `NS(=O)(=O)c1ccc(N/N=C2\C(=O)Nc3ccc(C(=O)NCCc4c[nH]cn4)cc32)cc1` has inhibition of -0.45%

Kindly note the recorded inhibition for `N#Cc1c(NC(=O)c2cccc3ccccc23)sc2c1CCCC2` , which is -1.1%
